Ref: patent US9326513B2

- System: Blumeria graminis f. sp. tritici (Erysiphe graminis f. sp. tritici)
- Protocol: Blumeria graminis f. sp. tritici / wheat / leaf disc preventative (powdery mildew on wheat)
- Assay type: in vivo
- Run parameters: foliar, compared to untreated control leaf disks, read-out: disease control
Examples of molecules with documented pest or weed control at 200 ppm follow.
Measured attribute: pest or weed control at 200 ppm

molecule="CCN(C)/C=N/c1cc(Br)c(OC2Cc3ccc(OCc4ccns4)cc3C2)nc1C (centres unmarked) [Q.144]" reported_value="≥ 50%"
molecule="CCN(C)/C=N/c1cc(Br)c(OCc2cc(-c3ccc(F)cc3)ns2)nc1C [Q.123]" reported_value="≥ 50%"
molecule="CCCc1ccccc1C(C)Oc1nc(C)c(/N=C/N(C)CC)cc1Br (centres unmarked) [Q.287]" reported_value="≥ 50%"
molecule="CCN(C)/C=N/c1cc(Br)c(OCc2ccc3ncccc3c2)nc1C [Q.209]" reported_value="≥ 50%"
molecule="CCN(C)/C=N/c1cc(Br)c(OCc2cc(F)cc(F)c2)nc1C [Q.105]" reported_value="≥ 50%"
